# System: GBA mutant human fibroblasts GM008760
# protocol-summary: Glucosylceramide lowering assay
# Format: cell-based
# condition-description: Homo sapiens, Fibroblast, 96 h; 10 μM test compound, 4 days culture; GlcCer (C16:0)/Cer (C16:0) molar ratio of test compound group relative to DMSO control group x100; smaller value = glucosylceramide lowering
value-type: activity at 10 µM

Cc1cn(C)c(=O)c2c(C(=O)N3CCC(c4ccc(Cl)cc4)C3)cn(C)c12 (centres unmarked) [Example 71] :: 68%
COc1cc(F)ccc1-n1ccc2c(c(C(=O)Nc3ccc(N4CCOCC4)cc3)cn2C)c1=O [Example 295] :: 66%
Cc1ccc(C23CN(C(=O)c4cn(C)c5c(C)cn(C)c(=O)c45)CC2C3(F)F)cc1 (centres unmarked) [Example 146] :: 65%
Cc1cn(C)c(=O)c2c(C(=O)N3CCC(Oc4ccc(C(F)(F)F)cc4)CC3)cn(C)c12 [Example 190] :: 29%
Cc1cn(C)c(=O)c2c(C(=O)N3CC4CC4(c4cccc(Cl)c4Cl)C3)cn(C)c12 (centres unmarked) [Example 121] :: 68%
Cc1cn(C)c(=O)c2c(C(=O)N[C@H]3CCCC[C@H]3c3ccccc3)cn(C)c12 (racemic) [Example 113] :: 41%
Cc1cn(C)c(=O)n2c(C(=O)NC(C)(C)c3ccc(Cl)cc3)cnc12 [Example 347] :: 44%
COc1ccccc1-n1cc(C)c2c(c(C(=O)Nc3ccccc3)cn2C)c1=O [Example 108] :: 67%
